Numbers sourced from patent US6916808B2.

Subject of test: porcine pancreatic lipase (Sus scrofa)
Sequence (P00591 whole entry): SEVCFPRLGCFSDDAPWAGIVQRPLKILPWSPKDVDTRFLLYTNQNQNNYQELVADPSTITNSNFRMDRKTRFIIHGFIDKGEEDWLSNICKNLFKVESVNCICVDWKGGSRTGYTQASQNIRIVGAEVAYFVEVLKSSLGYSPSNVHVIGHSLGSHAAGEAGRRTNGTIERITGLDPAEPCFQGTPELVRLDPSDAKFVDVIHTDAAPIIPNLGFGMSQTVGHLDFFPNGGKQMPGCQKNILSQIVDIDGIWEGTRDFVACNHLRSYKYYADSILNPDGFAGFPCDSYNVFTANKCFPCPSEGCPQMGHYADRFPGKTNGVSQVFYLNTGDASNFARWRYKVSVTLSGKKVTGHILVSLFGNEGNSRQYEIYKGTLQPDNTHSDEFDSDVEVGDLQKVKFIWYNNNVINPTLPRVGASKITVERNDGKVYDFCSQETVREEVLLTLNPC

Line notation	IC50
Cc1ccc2nc(Sc3ccccc3)oc(=O)c2c1	< 1000 nM
